System: S. aureus ATCC 25923
Type: cell-based, Staphylococcus aureus
Bridge positions count the residues as written; N and C are the ends. Square brackets hold non-standard residues; d marks the D form. Triazole bridges read from a SMILES are 1,4-linked. Peptide text beside a SMILES is read from it. Lys(N3) = [N-]=[N+]=NCCCC[C@H](N)C(=O)O; Pra = C#CC[C@H](N)C(=O)O
Examples of compounds with documented MIC S. aureus ATCC 25923 follow.
RESULT_TYPE: MIC S. aureus ATCC 25923

- COMPOUND: "CC[C@H](C)[C@@H]1NC(=O)[C@H](CCCNC(=N)N)NC(=O)CNC(=O)[C@@H](CC(C)C)NC(=O)[C@H](Cc2ccccc2)NC(=O)[C@H](CCCCN)NC(=O)[C@@H](NC(=O)[C@H](Cc2ccccc2)NC(=O)[C@H](Cc2c[nH]c3ccccc23)NC(=O)[C@@H]2CCCN2C(=O)[C@@H](NC(=O)[C@@H](N)Cc2ccccc2)C(C)C)Cc2cn(nn2)CCCC[C@@H](C(N)=O)NC1=O [compound 22] (H-FVPWF[Pra]KF[dL]GRI[Lys(N3)]-NH2; triazole 6-13)"
  RESULT: ">100 µM"
- COMPOUND: "CC[C@H](C)[C@H](NC(=O)[C@H](CCCNC(=N)N)NC(=O)CNC(=O)[C@@H](CC(C)C)NC(=O)[C@@H]1CCCCn2cc(nn2)C[C@H](NC(=O)[C@@H]2CCCN2C(=O)[C@@H](NC(=O)[C@@H](N)Cc2ccccc2)C(C)C)C(=O)N[C@@H](Cc2ccccc2)C(=O)N[C@@H](CO)C(=O)N[C@@H](CCCCN)C(=O)N1)C(=O)N[C@@H](CC(C)C)C(N)=O [compound 19] (H-FVP[Pra]FSK[Lys(N3)][dL]GRIL-NH2; triazole 4-8)"
  RESULT: ">100 µM"
- COMPOUND: "CC[C@H](C)[C@H](NC(=O)[C@H](CCCNC(=N)N)NC(=O)[C@@H]1CCCCNC(=O)CC[C@H](NC(=O)[C@H](Cc2ccccc2)NC(=O)[C@H](Cc2c[nH]c3ccccc23)NC(=O)[C@@H]2CCCN2C(=O)[C@@H](NC(=O)[C@@H](N)Cc2ccccc2)C(C)C)C(=O)N[C@@H](CCCCN)C(=O)N[C@@H](Cc2ccccc2)C(=O)N[C@H](CC(C)C)C(=O)N1)C(=O)N[C@@H](CC(C)C)C(N)=O [compound 24] (H-FVPWFEKF[dL]KRIL-NH2; lactam 6-10)"
  RESULT: "3.12 µM"

---

PROTOCOL_DETAILS: CD spectroscopy, secondary structure content (DichroWeb)
Format: physicochemical
CONDITION_SET: CD in water, peptide 50 μM, 25 °C, DichroWeb (CONTIN-LL, set-7; CDSSTR if NRMSD > 0.100)
Bridge positions count the residues as written; N and C are the ends. Square brackets hold non-standard residues; d marks the D form. Peptide text beside a SMILES is read from it.

- COMPOUND: "CC[C@H](C)[C@H](NC(=O)[C@H](CCCNC(=N)N)NC(=O)[C@]1(C)CCCC=CCCC[C@](C)(NC(=O)[C@H](Cc2ccccc2)NC(=O)[C@H](Cc2c[nH]c3ccccc23)NC(=O)[C@@H]2CCCN2C(=O)[C@@H](NC(=O)[C@@H](N)Cc2ccccc2)C(C)C)C(=O)N[C@@H](CCCCN)C(=O)N[C@@H](Cc2ccccc2)C(=O)N[C@H](CC(C)C)C(=O)N1)C(=O)N[C@@H](CC(C)C)C(N)=O [compound 25]"
  helix-1 (regular α-helix) [%]: 13
- COMPOUND: "CC[C@H](C)[C@H](NC(=O)[C@H](CCCNC(=N)N)NC(=O)[C@@H]1CCCCNC(=O)CC[C@H](NC(=O)[C@H](Cc2ccccc2)NC(=O)[C@H](Cc2c[nH]c3ccccc23)NC(=O)[C@@H]2CCCN2C(=O)[C@@H](NC(=O)[C@@H](N)Cc2ccccc2)C(C)C)C(=O)N[C@@H](CCCCN)C(=O)N[C@@H](Cc2ccccc2)C(=O)N[C@H](CC(C)C)C(=O)N1)C(=O)N[C@@H](CC(C)C)C(N)=O [compound 24] (H-FVPWFEKF[dL]KRIL-NH2; lactam 6-10)"
  helix-1 (regular α-helix) [%]: 1
- COMPOUND: "CC[C@H](C)[C@H](NC(=O)[C@H](CCCNC(=N)N)NC(=O)[C@@H]1CCC(=O)NCCCC[C@H](NC(=O)[C@H](Cc2ccccc2)NC(=O)[C@H](Cc2c[nH]c3ccccc23)NC(=O)[C@@H]2CCCN2C(=O)[C@@H](NC(=O)[C@@H](N)Cc2ccccc2)C(C)C)C(=O)N[C@@H](CCCCN)C(=O)N[C@@H](Cc2ccccc2)C(=O)N[C@H](CC(C)C)C(=O)N1)C(=O)N[C@@H](CC(C)C)C(N)=O [compound 12] (H-FVPWFKKF[dL]ERIL-NH2; lactam 6-10)"
  helix-1 (regular α-helix) [%]: 0
- COMPOUND: "CC[C@H](C)[C@H](NC(=O)[C@H](CCCNC(=N)N)NC(=O)[C@@H]1CCCCn2cc(nn2)C[C@H](NC(=O)[C@H](Cc2ccccc2)NC(=O)[C@H](Cc2c[nH]c3ccccc23)NC(=O)[C@@H]2CCCN2C(=O)[C@@H](NC(=O)[C@@H](N)Cc2ccccc2)C(C)C)C(=O)N[C@@H](CCCCN)C(=O)N[C@@H](Cc2ccccc2)C(=O)NC(CC(C)C)C(=O)N1)C(=O)N[C@@H](CC(C)C)C(N)=O (stereo in doubt) [compound 17]"
  helix-1 (regular α-helix) [%]: 2

---

PROTOCOL_DETAILS: circular dichroism
CONDITION_SET: water; pH ns; 25 °C; 50 uM
Square brackets hold non-standard residues; d marks the D form. Peptide text beside a SMILES is read from it.
RESULT_TYPE: helicity (%)

- COMPOUND: "CC[C@H](C)[C@H](NC(=O)[C@H](CCCNC(=N)N)NC(=O)CNC(=O)[C@@H](CC(C)C)NC(=O)[C@H](Cc1ccccc1)NC(=O)[C@H](CCCCN)NC(=O)[C@H](CO)NC(=O)[C@H](Cc1ccccc1)NC(=O)[C@H](Cc1c[nH]c2ccccc12)NC(=O)[C@@H]1CCCN1C(=O)[C@@H](NC(=O)[C@@H](N)Cc1ccccc1)C(C)C)C(=O)N[C@@H](CC(C)C)C(N)=O [compound 9, [Pro^3,DLeu^9]TL, reference compound] (H-FVPWFSKF[dL]GRIL-NH2)"
  MEASURED_NUMBER: 3

---

PROTOCOL_DETAILS: in vitro
CONDITION_SET: male, human, 90% fresh human serum
Bridge positions count the residues as written; N and C are the ends. Square brackets hold non-standard residues; d marks the D form. Peptide text beside a SMILES is read from it.

- COMPOUND: "CC[C@H](C)[C@H](NC(=O)[C@H](CCCNC(=N)N)NC(=O)[C@@H]1CCC(=O)NCCCC[C@H](NC(=O)[C@H](Cc2ccccc2)NC(=O)[C@H](Cc2c[nH]c3ccccc23)NC(=O)[C@@H]2CCCN2C(=O)[C@@H](NC(=O)[C@@H](N)Cc2ccccc2)C(C)C)C(=O)N[C@@H](CCCCN)C(=O)N[C@@H](Cc2ccccc2)C(=O)N[C@H](CC(C)C)C(=O)N1)C(=O)N[C@@H](CC(C)C)C(N)=O [compound 12] (H-FVPWFKKF[dL]ERIL-NH2; lactam 6-10)"
  remaining at 1.5 h, 0.2 mM: "~70%"

---

Examples of compounds with documented helix-1 (regular α-helix) follow.
PROTOCOL_DETAILS: CD spectroscopy, secondary structure content (DichroWeb)
Format: physicochemical
CONDITION_SET: CD in DPC micelles (20 mM), peptide 50 μM, 25 °C, DichroWeb
Bridge positions count the residues as written; N and C are the ends. Square brackets hold non-standard residues; d marks the D form. Peptide text beside a SMILES is read from it.
RESULT_TYPE: helix-1 (regular α-helix) (%)

- COMPOUND: "CC[C@H](C)[C@H](NC(=O)[C@H](CCCNC(=N)N)NC(=O)[C@]1(C)CCCC=CCCC[C@](C)(NC(=O)[C@H](Cc2ccccc2)NC(=O)[C@H](Cc2c[nH]c3ccccc23)NC(=O)[C@@H]2CCCN2C(=O)[C@@H](NC(=O)[C@@H](N)Cc2ccccc2)C(C)C)C(=O)N[C@@H](CCCCN)C(=O)N[C@@H](Cc2ccccc2)C(=O)N[C@H](CC(C)C)C(=O)N1)C(=O)N[C@@H](CC(C)C)C(N)=O [compound 25]"
  MEASURED_NUMBER: 54
- COMPOUND: "CC[C@H](C)[C@H](NC(=O)[C@H](CCCNC(=N)N)NC(=O)[C@@H]1CCCCn2cc(nn2)C[C@H](NC(=O)[C@H](Cc2ccccc2)NC(=O)[C@H](Cc2c[nH]c3ccccc23)NC(=O)[C@@H]2CCCN2C(=O)[C@@H](NC(=O)[C@@H](N)Cc2ccccc2)C(C)C)C(=O)N[C@@H](CCCCN)C(=O)N[C@@H](Cc2ccccc2)C(=O)NC(CC(C)C)C(=O)N1)C(=O)N[C@@H](CC(C)C)C(N)=O (stereo in doubt) [compound 17]"
  MEASURED_NUMBER: 38
- COMPOUND: "CC[C@H](C)[C@H](NC(=O)[C@H](CCCNC(=N)N)NC(=O)[C@@H]1CCC(=O)NCCCC[C@H](NC(=O)[C@H](Cc2ccccc2)NC(=O)[C@H](Cc2c[nH]c3ccccc23)NC(=O)[C@@H]2CCCN2C(=O)[C@@H](NC(=O)[C@@H](N)Cc2ccccc2)C(C)C)C(=O)N[C@@H](CCCCN)C(=O)N[C@@H](Cc2ccccc2)C(=O)N[C@H](CC(C)C)C(=O)N1)C(=O)N[C@@H](CC(C)C)C(N)=O [compound 12] (H-FVPWFKKF[dL]ERIL-NH2; lactam 6-10)"
  MEASURED_NUMBER: 54
